Let's go through some pEC50 measurements on LHRH binding sites on human ovarian cancer cells (EFO-27) together.
pEC50: −log10 of the molar value. Residues, ends and D or L forms follow the SMILES beside them.
readout: pEC50

| molecule | systemUnderTest | readout | recordedNumber |
| --- | --- | --- | --- |
| CN(CC(=O)N[C@@H](Cc1c[nH]cn1)C(=O)N[C@@H](Cc1c[nH]c2ccccc12)C(=O)N[C@@H](CO)C(=O)N[C@@H](Cc1c[nH]cn1)C(=O)N[C@H](CCCNC(=N)N)C(=O)N[C@@H](Cc1c[nH]c2ccccc12)C(=O)N[C@@H](Cc1cscn1)C(=O)N1CCC[C@H]1C(=O)NNC(N)=O)C(=O)CN1CCN(CC(=O)O)CCN(CC(=O)O)CCN(CC(=O)O)CC1 [BRU-2742] | LHRH binding sites on human ovarian cancer cells (EFO-27) | pEC50 | 5.00 |
| CN(CC(=O)N[C@@H](Cc1c[nH]cn1)C(=O)N[C@@H](Cc1c[nH]c2ccccc12)C(=O)N[C@@H](CO)C(=O)N[C@@H](Cc1c[nH]cn1)C(=O)N[C@H](CCCNC(=N)N)C(=O)N[C@@H](Cc1c[nH]c2ccccc12)C(=O)N[C@@H](Cc1ccc(C(=O)c2ccccc2)cc1)C(=O)N1CCC[C@H]1C(=O)NNC(N)=O)C(=O)c1ccc(CNC(=O)CN2CCN(CC(=O)O)CCN(CC(=O)O)CCN(CC(=O)O)CC2)cc1 [compound 2727] | LHRH binding sites on human ovarian cancer cells (EFO-27) | pEC50 | 6.19 |
| N=C(N)NCCC[C@@H](NC(=O)[C@H](Cc1c[nH]cn1)NC(=O)[C@H](CO)NC(=O)[C@H](Cc1c[nH]c2ccccc12)NC(=O)[C@H](Cc1c[nH]cn1)NC(=O)[C@H](Cc1ccc2ccccc2c1)NC(=O)CN1CCN(CC(=O)O)CCN(CC(=O)O)CCN(CC(=O)O)CC1)C(=O)N[C@@H](Cc1c[nH]c2ccccc12)C(=O)N[C@@H](Cc1ccc(C(=O)c2ccccc2)cc1)C(=O)N1CCC[C@H]1C(=O)NNC(N)=O [BRU-2809] | LHRH binding sites on human ovarian cancer cells (EFO-27) | pEC50 | 5.45 |
| N=C(N)NCCC[C@H](NC(=O)[C@@H](Cc1ccc2ccccc2c1)NC(=O)CN1CCN(CC(=O)O)CCN(CC(=O)O)CCN(CC(=O)O)CC1)C(=O)N[C@@H](Cc1c[nH]c2ccccc12)C(=O)N[C@@H](CO)C(=O)N[C@@H](Cc1c[nH]cn1)C(=O)N[C@H](CCCNC(=N)N)C(=O)N[C@@H](Cc1c[nH]c2ccccc12)C(=O)O [compound 3046] (HELM PEPTIDE1{[O=C(O)CN1CCN(CC(=O)O)CCN(CC(=O)[*:2])CCN(CC(=O)O)CC1].[O=C([C@@H](Cc1ccc2ccccc2c1)N[*:1])[*:2]].R.W.S.H.[dR].W}$$$$V2.0; N-terminus assumed) | LHRH binding sites on human ovarian cancer cells (EFO-27) | pEC50 | 4.80 |
| CN(CC(=O)N[C@@H](Cc1c[nH]cn1)C(=O)N[C@@H](Cc1c[nH]c2ccccc12)C(=O)N[C@@H](CO)C(=O)N[C@@H](Cc1c[nH]cn1)C(=O)N[C@H](CCCNC(=N)N)C(=O)N[C@@H](Cc1c[nH]c2ccccc12)C(=O)N[C@@H](Cc1ccccc1)C(=O)N1CCC[C@H]1C(=O)NNC(N)=O)C(=O)CN1CCN(CC(=O)O)CCN(CC(=O)O)CCN(CC(=O)O)CC1 [BRU-2730] (HELM PEPTIDE1{[O=C(O)CN1CCN(CC(=O)O)CCN(CC(=O)[*:2])CCN(CC(=O)O)CC1].[Sar].H.W.S.H.[dR].W.F.P.[O=C(NN[*:1])[*:2]].[am]}$$$$V2.0) | LHRH binding sites on human ovarian cancer cells (EFO-27) | pEC50 | 4.89 |
